Parameter T/C: see the listing below.
- Tested on: P388 leukemia ip, CD2F1 mice, survival T/C
- Measurement protocol: NCI In Vivo Anticancer Drug Screen. Data for tumor model P388 Leukemia (intraperitoneal) in CD2F1 (CDF1) mice
- Protocol conditions: endpoint: median survival time; dose: 100.0 mg/kg/injection; schedule: Q01DX005 (ip); vehicle: saline with Tween-80; higher = longer survival
Toxic doses and inconclusive results are not listed.

Please review the following examples before continuing.
> print(dat)
                                    compound  reported.measurement
 1  Nc1nc2ncc(CNc3ccc(C(=O)NC(CCC(=O)O)C(=O)O)cc3)cc2c(=O)[nH]1 (stereo unspecified)      117 % of control
 2  CC(C)C(NC(=O)c1ccccc1)C(=O)O (stereo unspecified)       93 % of control
 3  CCCCCC(=O)C1C(c2ccc(C)cc2)CC(=O)C(CCCC)C1c1ccc(C)cc1 (stereo unspecified)       93 % of control
 4  CCOC(=O)C1C(COCc2ccccc2)C2CCC1(OC)C=C2C (stereo unspecified)       97 % of control
 5       COc1ccc(COC(=O)Nc2ccccc2F)c(OC)c1OC      101 % of control
 6  Cc1cc[n+](C2=C(Nc3cc(C)cc(C)c3)C(=O)c3ccccc3C2=O)cc1      119 % of control
 7                    O=C(O)CCCCCCCCC#CC#CCO       99 % of control
 8  C=CC1CN2CCC1CC2C(=O)c1ccnc2ccc(OC)cc12 (stereo unspecified)      100 % of control
 9  COC(=O)C(NC(=O)C(CO)N1C(=O)c2ccccc2C1=O)c1ccccc1 (stereo unspecified)       98 % of control
10  COC1OC(CO)C(O)C(O)C1NC(C)=O (stereo unspecified)      100 % of control

In: Recorded T/C of CCOC(=O)CC(C#N)(C#N)CC(=O)OCC , please.
Out: 107 % of control

In: Recorded T/C of CCOc1c(N=Nc2ccc(Cl)cc2)c(-c2ccccc2)nn1C(=S)S , please.
Out: 99 % of control

In: Recorded T/C of COC(=O)CN1C(=O)c2cccc3cc(N)cc(c23)C1=O , please.
Out: 87 % of control

In: Recorded T/C of C=C1C[C@H](C2OC3OC(C)(C)OC3C2OCc2ccccc2)OC1=O (stereo partly specified) , please.
Out: 98 % of control

In: Recorded T/C of CCOC(=O)CC1CC(C)(C(=O)OCC)C(=O)CC1=O (stereo unspecified) , please.
Out: 104 % of control

In: Recorded T/C of CCCCN(CCCC)CNC(=O)c1ccccc1 , please.
Out: 100 % of control

###

- Tested on: P388 leukemia ip, CD2F1 mice, survival T/C
- Measurement protocol: NCI In Vivo Anticancer Drug Screen. Data for tumor model P388 Leukemia (intraperitoneal) in CD2F1 (CDF1) mice
- Protocol conditions: endpoint: median survival time; dose: 240.0 mg/kg/injection; schedule: Q01DX005 (ip); vehicle: saline with Tween-80; higher = longer survival
Inconclusive results and toxic doses are left out.
Parameter T/C: see the listing below.

> print(dat)
                                    compound                              study.system  reported.measurement
 1     N#Cc1c2c(c(=O)n3c1[nH]c1ccccc13)CCCC2  P388 leukemia ip, CD2F1 mice, survival T/C       90 % of control
 2    COc1ccccc1C1=Nc2ccccc2N=C(c2ccccc2O)C1  P388 leukemia ip, CD2F1 mice, survival T/C       90 % of control
 3            COc1cc(=O)[nH]c(-c2ccccc2)c1OC  P388 leukemia ip, CD2F1 mice, survival T/C       99 % of control
 4    O=C(O)c1cc(OCc2ccccc2)cc(OCc2ccccc2)c1  P388 leukemia ip, CD2F1 mice, survival T/C      106 % of control
 5  O=C(CCCl)Nc1ccc(C(=O)CCc2cccc(NC(=O)CCCl)c2)cc1  P388 leukemia ip, CD2F1 mice, survival T/C       89 % of control
 6   COc1ccc2c(c1C)CN1CCc3cc4c(cc3C1=C2)OCO4  P388 leukemia ip, CD2F1 mice, survival T/C      100 % of control
 7  COc1ccccc1OCC(O)CNc1ccc(Cl)cc1C(=O)c1ccccc1 (stereo not drawn)  P388 leukemia ip, CD2F1 mice, survival T/C       94 % of control
 8  COC(=O)C(=O)c1c(C(=O)OC)nc2nnc(N)n2c1-c1ccc(O)c(OC)c1  P388 leukemia ip, CD2F1 mice, survival T/C       94 % of control
 9  O=C(O)CSc1ccc([N+](=O)[O-])cc1[N+](=O)[O-]  P388 leukemia ip, CD2F1 mice, survival T/C       95 % of control
10  COc1ccc2c(c1OC)C1N(C)CCc3cc4c(cc3C1(OC)C2=O)OCO4 (stereo not drawn)  P388 leukemia ip, CD2F1 mice, survival T/C       93 % of control

Would you kindly look at the next entry?
In: Recorded T/C of CCCCCCCCCCCCCCCc1nc(SCC(=O)OC)n[nH]1 , please.
Out: 98 % of control
